Value source: PubChem BioAssay (NCI)

test system: NCI-H460 lung; test: NCI tumour cell line growth inhibition, 48 h
recordedMetric: TGI

// below: answered molecules
molecule | assayTarget | result
O=C1/C(=C\c2cccs2)Oc2ccccc21 | NCI-H460 lung | > 100 µM
OC1CCC(C2C3CCCCC3C3CCCCC3C2C2CCC(O)CC2)CC1 (configuration not stated) | NCI-H460 lung | 10.2 µM
COc1cc(C(C#N)NNC(=O)c2ccccc2O)ccc1O (configuration not stated) | NCI-H460 lung | > 100 µM
COc1cccc(C2c3cc4c(cc3OC(N3CCOCC3)C2C)OCO4)c1O (configuration not stated) | NCI-H460 lung | 20.4 µM
CN(C)CN1C(=O)S/C(=C2\C(=O)N(CN(C)C)c3ccccc32)C1=O | NCI-H460 lung | > 100 µM
OC1CCC(Oc2cccc3cnc(Nc4ccc5nc[nH]c5c4)nc23)CC1 (configuration not stated) | NCI-H460 lung | 11.8 µM
CC(NC(=O)c1ccc(OP(=O)(OCC2=CC(=O)c3ccccc3C2=O)N(C)CCCCCl)cc1)c1ccc(OCC2CCCCC2)c(C(N)=O)c1 (configuration not stated) | NCI-H460 lung | 22.9 µM
COc1ccc(-c2cn3c(n2)sc2cc(C)ccc23)cc1 | NCI-H460 lung | > 100 µM
CCN(CC)C(=O)CCCCCCCCC1CO1 (configuration not stated) | NCI-H460 lung | > 100 µM
COc1cc2c(cc1OCCCC(=O)Nc1cc(C(=O)Nc3cc(C(=O)NCCCN(C)C)n(C)n3)n(C)n1)N=CC1CCCN1C2=O (configuration not stated) | NCI-H460 lung | > 100 µM

(Q) Recall and state the measured TGI for COC(=O)/C(=N/NC(C)(C)C)C(C(=O)C=C(C)C)C(=O)C(=O)Nc1ccc(Cl)cc1C (configuration not stated) .
(A) > 100 µM

(Q) Return the recorded TGI value; entry: O=c1oc2c3ccc4ccccc4c3n(Cc3nc4ccccc4[nH]3)c2c2ccccc12
(A) > 100 µM

(Q) Respond only with TGI recorded for C=C[C@H]1CN2CC[C@H]1C[C@@H]2[C@@H](O)c1ccnc2ccccc12
(A) > 100 µM

(Q) Using known records, supply TGI for Cc1ccc2c3c1O[C@H]1c4nc5ccccc5cc4C[C@@]4(O)[C@@H](C2)N(CC2CC2)CC[C@]314
(A) 35.8 µM

====

tested on: UO-31 renal; experiment: NCI tumour cell line growth inhibition, 48 h
recordedMetric: log10 TGI (log10 of the value in µM)
Scale type: logarithmic (base 10). Underlying TGI unit: µM.

Here are 5 molecules together with their reported answers.
molecule | assayTarget | recordedMetric | recordedNumber
COc1cccc2c(=O)c3c(sc12)c(NCCCN)nc1ccccc13 | UO-31 renal | log10 TGI | 0.34
CC(NC(=O)c1ccc(OP(=O)(OCC2=CC(=O)c3ccccc3C2=O)N(C)CCCCCl)cc1)c1ccc(OCC2CCCCC2)c(C(N)=O)c1 (configuration not stated) | UO-31 renal | log10 TGI | 1.34
O=C1CSC2(CCN(CCCN3c4ccccc4Sc4ccc(Cl)cc43)CC2)N1 | UO-31 renal | log10 TGI | 1.29
CC1=CC[C@@H]2C(C)(C)[C@@H](O)CC[C@@]2(C)[C@@H]1COc1ccc2ccc(=O)oc2c1 | UO-31 renal | log10 TGI | 1.12
C=C1C(=O)O[C@H]2[C@H]1CC/C(COC(=O)c1ccc(C(=O)O)s1)=C\CC[C@@]1(C)O[C@@H]21 | UO-31 renal | log10 TGI | 0.48

(Q) Fill in reported log10 TGI for this entry: CN(C)CCNc1cccc2sc3ccc(O)cc3c(=O)c12
(A) 0.55

(Q) Give the value of log10 TGI reported for the following: O=Nc1c2cccnc2n2nnc3ccc(Cl)cc3c12
(A) 0.98

(Q) Give the value of log10 TGI reported for the following: COc1cc2c(cc1OCCCC(=O)Nc1cc(C(=O)Nc3cc(C(=O)NCCCN(C)C)n(C)n3)n(C)n1)N=CC1CCCN1C2=O (configuration not stated)
(A) 1.48

(Q) Tell us which log10 TGI value is on record for COc1ccc2nc3c([N+](=O)[O-])ccc4c3c(c2c1)NCCN4C
(A) 0.45

(Q) Indicate the recorded log10 TGI value for this molecule: O=C1Cc2c(-c3ccccc3)cc(-c3cccc(Cl)c3)nc2-c2ccccc2N1
(A) 1.05
